Experimental details: NCI Yeast Anticancer Drug Screen. Data for the cln2 rad14 strain (AID 165);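 further: 0% = growth equal to vehicle treated cultures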
Test parameters: S. cerevisiae cln2 rad14 strain, at 50.0 µM, stronger effect = higher value
About 79,000 compounds went through this panel and 15% of them were active in at least one assay; those are over-represented in the sample as a whole.
Property: growth inhibition; scope: individual molecules
Please state the figure in %; there is no need to write the unit.

Recorded results for 5 molecules are shown here.
>  <Molecule>
CCOC(=O)c1ccc(Nc2sc(C(=O)c3ccc(Br)cc3)c(N)c2C#N)cc1

>  <growth inhibition / %>
20.3

$$$$
>  <Molecule>
O=C(CC(CC(=O)c1ccccc1)c1ccccn1)c1ccccc1

>  <growth inhibition / %>
-33

$$$$
>  <Molecule>
FC(F)(F)c1cc(NC2=NCCN=C(Nc3cc(C(F)(F)F)cc(C(F)(F)F)c3)SS2)cc(C(F)(F)F)c1

>  <growth inhibition / %>
-2

$$$$
>  <Molecule>
Cc1cc(NC(=O)c2ccccc2)c(Cl)cc1N

>  <growth inhibition / %>
-13.4

$$$$
>  <Molecule>
S=C=Nc1ccc2ccccc2c1

>  <growth inhibition / %>
10.6

$$$$

Consider the record given below.
// field: growth inhibition; key: "CCN(CC)CCN1CNC(=S)NC1" ; value = -1.8

----------
Experimental details: NCI Yeast Anticancer Drug Screen. Data for the rad50 strain (AID 155);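 further: 0% = growth of vehicle-only cultures of the same strain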
Test parameters: S. cerevisiae rad50 strain growth inhibition; at 50.0 µM; stronger effect = higher value
Description: Growth inhibition of yeast strains with defined genetic alterations is measured as a screen for potential anti-cancer activity. Selected strains with alterations in DNA damage repair or cell cycle control were exposed to compounds and growth inhibition was measured relative to vehicle treated controls. The strain used in this assay is rad50
The panel holds about 79,000 compounds, 15% with a hit somewhere; the sample as a whole holds those more often.
// reported growth inhibition per item
Express the result in % but write the number alone.

Below are worked cases with known answers.
>  <Compound>
CCOC(=O)c1ccc(NC(C)=O)o1

>  <growth inhibition / %>
-10.3

$$$$
>  <Compound>
CCCCCC/C=C\CCCCCCCCCc1cc(O)cc(OC)c1O

>  <growth inhibition / %>
-8.55

$$$$
>  <Compound>
CCCCCCCCCCCCCCCCOc1ccccc1NC(=O)CC(C)=O

>  <growth inhibition / %>
-8.7

$$$$
>  <Compound>
O=c1cc(Cl)nc2ccccn12

>  <growth inhibition / %>
18.6

$$$$

Please fill in: growth inhibition reported for "O=C(NCCc1ccccc1)/C(=C\c1ccc(Cl)cc1Cl)NC(=O)c1ccccc1" = 1.65

Per the record, "CCOC(=O)c1c(C)[nH]c(C)c1C=O" has growth inhibition of 16.6

Value of measured growth inhibition for the entry "Cc1nc(C)c(C(=O)O)cc1C(=O)O" : -8.9

// sample "COc1cc(C(=O)NC(=S)NCc2ccncc2)cc(OC)c1OC" , its growth inhibition was 9.6

Input COC1OC(COC(C)=O)C(OC(C)=O)C(OC(C)=O)C1OC(C)=O (stereo unspecified) . Output growth inhibition: 10.7

The compound listed as "CCN(Cc1ccc(Cl)c(Cl)c1)c1ccc2nc(N)nc(N)c2c1C" has a reported growth inhibition of 40

Just so you know, measured growth inhibition for "Cc1cc2c(C(C)C)c(O)c(O)c(C=Nc3ccccc3[N+](=O)[O-])c2c(O)c1-c1c(C)cc2c(C(C)C)c(O)c(O)c(C=Nc3ccccc3[N+](=O)[O-])c2c1O" came out at -13.9

----------
Experimental details: NCI Yeast Anticancer Drug Screen. Data for the mlh1 rad18 strain (AID 175)
Test parameters: S. cerevisiae mlh1 rad18 strain growth inhibition; at 50.0 µM; stronger effect = higher value
This is part of a sample that, as a whole, favours compounds with a hit. Of some 79,000 tested, about 15% had one in any assay. Calls of active or inactive are those of the source. Cut-off read from the data, not from the text of the source: active = growth inhibition above about 70%; inactive = the rest.
Quantity kind: growth inhibition

Reference set (3 entries):
>  <Compound>
COC(=O)c1ccccc1C(=O)c1c(C)cc(C)cc1C

>  <growth inhibition>
50.3% (inactive)

$$$$
>  <Compound>
NNc1ncnc2c1ncn2C1OC(CO)C(O)C1O (centres undefined)

>  <growth inhibition>
-15.2% (inactive)

$$$$
>  <Compound>
COc1cc(N)c2ncccc2c1Cl

>  <growth inhibition>
30.4% (inactive)

$$$$

Then there is this compound:
So, "NC(=S)N/N=C/c1ccc(OC(=O)COc2ccccc2)cn1" ? Its growth inhibition was 9.9% (inactive)

----------
Experimental details: NCI Yeast Anticancer Drug Screen. Data for the cln2 rad14 strain (AID 165);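 further: 0% = growth equal to vehicle treated cultures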
Test parameters: S. cerevisiae cln2 rad14 strain, at 50.0 µM, stronger effect = higher value
This is part of a sample that, as a whole, favours compounds with a hit. Of some 79,000 tested, about 15% had one in any assay. Calls of active or inactive are those of the source. No stated cut-off is given here; in the data, active means growth inhibition above about 70%; inactive means the rest.
Quantity kind: growth inhibition

// solved cases for growth inhibition follow
>  <Compound>
Cc1cc(Nc2ccc3c(c2)OCO3)c2cc3c(cc2n1)OCO3

>  <growth inhibition>
3.8% (inactive)

$$$$
>  <Compound>
COc1cc(OC)c(NC(=O)C(Sc2nc(C)cc(C)c2C#N)c2ccccc2)cc1Cl (stereo unspecified)

>  <growth inhibition>
22.2% (inactive)

$$$$
>  <Compound>
NC(CO)(CO)c1ccccc1

>  <growth inhibition>
20% (inactive)

$$$$
>  <Compound>
Cc1ccc(NC(=O)c2ccccc2Cl)cc1

>  <growth inhibition>
-42% (inactive)

$$$$

Record "C=C1C(=O)C2CCN1CC2" , field growth inhibition: 2.95% (inactive)

Notebook: "C/C(=N\O)c1ccccn1" , growth inhibition read as 1.15% (inactive)

----------
Experimental details: NCI Yeast Anticancer Drug Screen. Data for the mlh1 rad18 strain (AID 175)
Test parameters: S. cerevisiae mlh1 rad18 strain growth inhibition; at 50.0 µM; stronger effect = higher value
About 79,000 compounds went through this panel and 15% of them were active in at least one assay; those are over-represented in the sample as a whole.
Quantity kind: growth inhibition (%)
The figure you give is taken to be in %; do not add the unit.

In the examples that follow, each entry is paired with its recorded growth inhibition.
>  <Compound>
CCOc1ccncc1[N+](=O)[O-]

>  <Numeric readout>
5

$$$$
>  <Compound>
O=[N+]([O-])c1c(O)c(CNCCCO)cc(CNCCCO)c1O

>  <Numeric readout>
43.1

$$$$
>  <Compound>
Cn1c(=O)c2nc3c(=O)n(C)c(=O)n(C)c3nc2n(C)c1=O

>  <Numeric readout>
-2.25

$$$$
>  <Compound>
O=S(Cc1ccccc1)/C(=C/NC(=S)Nc1cc(Cl)ccc1Cl)c1ccccc1 (configuration not stated)

>  <Numeric readout>
7.1

$$$$
>  <Compound>
COc1ccc(Br)c(C=O)c1

>  <Numeric readout>
-2.25

$$$$

Value of measured growth inhibition for the entry "CCCCCCCCNC(=O)C(C)C" : -11.9

Record summary for "O=C(Oc1ccccc1Cl)c1ccc(Cl)cc1Cl" : reported growth inhibition = 48.3

Note to self: growth inhibition recorded for "CCOC(=O)Nc1nccs1" was -4.6

----------
Reported growth inhibition is given for each of the following molecules.
Experimental details: NCI Yeast Anticancer Drug Screen. Data for the sgs1 mgt1 strain (AID 161);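 further: 0% = growth of cultures given vehicle only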
Test parameters: S. cerevisiae sgs1 mgt1 strain, at 50.0 µM, stronger effect = higher value
Compounds without any hit were thinned out: in the full panel of roughly 79,000, 15% have a hit.
Please reply with the bare figure in % and do not write the unit itself.

See these solved cases before continuing.
>  <Molecule>
Cc1ccc(C(C)C)c(OCC(=O)O)c1

>  <Unit tag>
%

>  <Numeric readout>
24.2

$$$$
>  <Molecule>
CCOC(=O)N[C@H]1CCc2cc(OC)c(OC)c(OC)c2-c2ccc(SC)c(=O)cc21

>  <Unit tag>
%

>  <Numeric readout>
16.2

$$$$
>  <Molecule>
C=C1CC2(OC1=O)C(=O)N(C)c1ccc(I)cc12 (centres undefined)

>  <Unit tag>
%

>  <Numeric readout>
92.1

$$$$
>  <Molecule>
Cn1c2ccccc2c2nnc(NCCCCO)nc21

>  <Unit tag>
%

>  <Numeric readout>
19.1

$$$$
>  <Molecule>
CC(=O)N=c1ccc2nc3c(cc(N)c4ccccc43)oc-2c1

>  <Unit tag>
%

>  <Numeric readout>
27.6

$$$$
>  <Molecule>
CCCc1cccc(CCC)c1NC(=O)Nc1cc(Cl)cc(Cl)c1

>  <Unit tag>
%

>  <Numeric readout>
47.5

$$$$
>  <Molecule>
CN(C)c1ccc2nc3ccc(=[N+](C)C)cc-3oc2c1

>  <Unit tag>
%

>  <Numeric readout>
-27.7

$$$$
>  <Molecule>
Nc1nc2nnc(-c3ccccc3)c(-c3ccccc3)n2n1

>  <Unit tag>
%

>  <Numeric readout>
6.4

$$$$
>  <Molecule>
O=S(=O)(c1ccc(NC(=S)NCc2cccnc2)cc1)N1CCCCC1

>  <Unit tag>
%

>  <Numeric readout>
23.9

$$$$
>  <Molecule>
O=C(O)Cc1ccc(Cl)cc1

>  <Unit tag>
%

>  <Numeric readout>
29

$$$$

Lookup result for O=S(Cc1ccccc1)/C(=C/NC(=S)Nc1ccccc1)c1ccccc1 (centres undefined) ; measured growth inhibition: -40.1
